Source listed as PubChem BioAssay AID463173.

Tested on: DeltatarO mutant
experiment notes: S. aureus survival, RN4220 and DeltatarO strains – OD600, teichoic acid synthesis inhibitors, primary screen (AID 463173)
experimental parameters: S. aureus RN4220 wild type/DeltatarO growth, OD600, 18 h, active compounds read low, screened at 18.75 µg/mL (by protocol)
The campaign covered roughly 52,000 compounds. About 4,300 (8.3%) were called active. Only a selection was taken, and actives are over-represented in it overall.
# survival listing for each entry below
quantity kind: survival (%)

• Cc1ccc2onc(CC(=O)N(C)c3ccccc3)c2c1 = 52
• COc1ccc(N2CCN(C(=O)NCc3noc4ccccc34)CC2)cc1 = 42
• Cc1ccc2onc(CC(=O)N3CCN(c4cccc(C)c4C)CC3)c2c1 = 39
• Cc1ccc(C)c(-n2cc(-c3ccccc3)nc2SCC(=O)Nc2ccccc2)c1 = 96
• CCOc1ccccc1NC(=O)NC1(C(=O)NCc2ccco2)CCCCC1 = 84
• COc1ccc(C2=C(C)C(=NCCCN3CCN(c4cc(Cl)ccc4C)CC3)NS2(=O)=O)cc1 = 59
• COc1ccc(CCNC(=O)Cc2c(C)c3c(cc(C)c4c(C)c(C)oc43)oc2=O)cc1OC = 83
• CC(C)CC(C(=O)NCC1CCN(Cc2ccc(F)cc2)CC1)N1Cc2ccccc2C1=O (stereo unspecified) = 94
• Cc1ccc2onc(CC(=O)N3CCN(c4ccccc4)CC3)c2c1 = 40
• Cc1ccc2onc(CC(=O)N3CCN(c4ccccc4F)CC3)c2c1 = 71
• O=C(Nc1ccc(Br)cc1F)C1CCN(c2nc3ccccc3[nH]2)CC1 = 102
• COc1ccc(C2CC(=O)c3cnc4c(-c5ccccc5)c(C)nn4c3C2)c(OC)c1 (stereo unspecified) = 82
• O=C(NCc1ccc(Cl)cc1)c1cnc2sc(N3CCOCC3)nn2c1=O = 52
• Cc1ccc2oc(=O)c3cnn(CC(=O)N4CCN(c5ccccc5)CC4)c3c2c1 = 123
• Cc1ccccc1-c1nnc(C2CCN(S(=O)(=O)c3ccc(Cl)cc3)CC2)o1 = 89
• CC(C)c1ccc(NC(=O)Cn2cc(S(=O)(=O)Cc3cccc(Cl)c3)c3ccccc32)cc1 = 76
• Cc1ccc2onc(CC(=O)N3CCN(c4cccc(Cl)c4)CC3)c2c1 = 83
• COc1ccc(N2CCN(C(=O)Cc3coc4ccc(C)cc34)CC2)cc1 = 105
• Cc1ccc2onc(CNC(=O)N3CCN(c4cccc(C)c4C)CC3)c2c1 = 48
• Cc1ccc(NCc2nnc(SCc3cc(C)ccc3C)o2)c(C)c1 = 91
• COc1ccc(-c2cnnn2-c2ccc(NC(=O)c3ccccc3OC)cc2)cc1 = 107

###

Tested on: DeltatarO mutant
experiment notes: S. aureus survival, RN4220 and DeltatarO strains – OD600, teichoic acid synthesis inhibitors, primary screen (AID 463173)
experimental parameters: S. aureus RN4220 wild type/DeltatarO growth, OD600, 18 h, screened at 18.75 µg/mL (by protocol)
In all, about 52,000 compounds went through this assay and about 4,300 (8.3%) were called active. Rule as the data show it: active = survival mostly below about 52% (no sharp cut-off); inactive = mostly above about 56%. The sample holds actives, similar compounds and a random draw of the others, so the mix is not that of the screen.
Possible outcomes: 1 for active, -1 for inactive

- COc1ccc(CCNC(=O)c2cc(=O)c3ccc(C)cc3o2)cc1OC: -1
- Cc1ccc(-c2[nH]c3ccccc3c2SCCNC(=O)c2ccc(S(=O)(=O)N(C)C)cc2)cc1: -1
- COc1cccc(CNC(=O)c2cnc(N3CCCCC3)c3ccccc23)c1: -1
- COc1ccc(CCN2C(=O)NC(NC(=O)c3ccccc3OC)(C(F)(F)F)C2=O)cc1OC (stereo unspecified): -1
- N#CCNS(=O)(=O)c1ccccc1: -1
- Cc1ccc(CNC(=O)c2cc(=O)c3cc(C)cc(C)c3o2)cc1: -1
- Cc1ccc(CNC(=O)c2cc(=O)c3cc(C)ccc3o2)cc1: 1
- CCc1ccc2nc(N3CCCCC3)c(C#N)cc2c1: -1
- Cc1cccc(-c2cc(NC(=O)COc3ccccc3F)n(-c3ccccc3)n2)c1: -1
- CC(NCc1ccc(F)cc1)C(=O)NC1CCCCC1 (stereo unspecified): -1
- COc1ccc(-c2nc3cnccn3c2NCc2ccc3c(c2)OCO3)cc1CN1CCOCC1: -1
